Molecular target: Beta-lactamase VIM-2 (Pseudomonas aeruginosa, UniProt Q9K2N0)
Test: Inhibition of beta lactamase VIM-2 in Pseudomonas aeruginosa 3015473 in presence of nitrocefin as reporter substrate measured after 5 mins by microplate spectrophotometry analysis
Conditions: read-out: IC50
# maps each entry to its log10 of IC50
MEASUREMENT NAME: log10 of IC50 (log10 of the value in nM)

- QUERY SMILES: "O=S(=O)(NCc1[nH]nnc1CNC12CC3CC(CC(C3)C1)C2)c1cc(Cl)ccc1Cl"
  log10 of IC50: 2.08
- QUERY SMILES: "O=S(=O)(NCc1[nH]nnc1CNC1CCCCC1)c1cc(Cl)ccc1Cl"
  log10 of IC50: 2.36
- QUERY SMILES: "CC(=O)OCc1nn[nH]c1CNS(=O)(=O)c1ccc(I)cc1"
  log10 of IC50: 4.36
- QUERY SMILES: "O=S(=O)(NCc1[nH]nnc1CNC12CC3CC(CC(C3)C1)C2)c1ccc(I)cc1"
  log10 of IC50: 2.20
- QUERY SMILES: "COc1ccc(CSCc2nn[nH]c2CNS(=O)(=O)c2ccc(I)cc2)cc1"
  log10 of IC50: 4.32
